Test system: HCT116 cells
Procedure summary: Antiproliferation assay, Cell Titer Glo, 72 hours
Format: cell-based
Condition info: Homo sapiens, HCT-116, 72 h
pIC50: −log10 of the molar value.
Entries and their pIC50 values follow.
Recorded endpoint: pIC50

1. C=CC(=O)Nc1ccc(S(=O)(=O)N2CCC[C@@H](NC(=O)c3n[nH]cc3NC(=O)c3c(Cl)cccc3Cl)C2)cc1 [FMF-04-056-1]
< 5.00
2. C=CC(=O)Nc1cccc(S(=O)(=O)N2CCC(NC(=O)c3n[nH]cc3NC(=O)c3c(Cl)ccc(OC)c3Cl)CC2)c1 [FMF-04-184-1]
> 9.00
3. Cc1[nH]nc(C(=O)NC2CCN(S(=O)(=O)c3cccc(NC(=O)/C=C/CN(C)C)c3)CC2)c1NC(=O)c1c(Cl)cccc1Cl [FMF-04-181-2]
< 5.00
4. CN(C)C/C=C/C(=O)Nc1cccc(CNC(=O)c2n[nH]cc2NC(=O)c2c(Cl)cccc2Cl)c1 [FMF-05-067-2]
< 5.00
5. C=CC(=O)Nc1cccc(S(=O)(=O)N2CCC(NC(=O)c3n[nH]cc3NC(=O)c3c(OC)cc(OC)cc3OC)CC2)c1 [FMF-05-028-1]
< 5.00
